target: Chymotrypsin (Homo sapiens) (UniProt Q99895+P17538+P40313+Q6GPI1); test: Chymotrypsin inhibition percentage at 10 µM by FRET kind of response from peptide substrate; type: functional
parameter: inhibition (%)

C[C@H]1COc2c(N3CCN(C)CC3)c(F)cc3c(=O)c(C(=O)O)cn1c23; 1.29
O=C(O[C@@H]1Cc2c(O)cc(O)cc2O[C@@H]1c1cc(O)c(O)c(O)c1)c1cc(O)c(O)c(O)c1 [EPIGALOCATECHIN GALLATE]; -0.5
[O-][n+]1ccccc1S; 8.11
O=C1C(Cl)=C(Cl)C(=O)C(Cl)=C1Cl; 10.1
Oc1cc2c(cc1O)C(c1ccccc1)CNCC2 (stereo not given); 8.97

###

# key: entry, value: IC50
molecular target: Replicase polyprotein 1ab (Severe acute respiratory syndrome coronavirus 2, UniProt P0DTD1); test: biochemical
Where a name gives a salt, the structure may show the parent alone.
parameter: IC50 (µM)

C[C@@H]1O[C@@H](O[C@@H]2[C@@H](O)[C@H](OCCc3ccc(O)c(O)c3)O[C@H](CO)[C@H]2OC(=O)/C=C/c2ccc(O)c(O)c2)[C@H](O)[C@H](O)[C@H]1O [ACETOSIDE]; 4.54
Nc1ccc2cc3ccc(N)cc3nc2c1 [PROFLAVINE]; 0.36
Nc1nc(S)c2ncn(C3OC(CO)C(O)C3O)c2n1 (stereo unspecified); 1.08
CC(C)Nc1cccnc1N1CCN(C(=O)c2cc3cc(NS(C)(=O)=O)ccc3[nH]2)CC1 [DELAVIRDINE MESYLATE]; 3.99
CCOC(=O)c1c(N)sc(-c2ccccc2)c1C; 3.19

###

molecular target: Replicase polyprotein 1ab (Middle East respiratory syndrome-related coronavirus (isolate UnitedKingdom/H123990006/2012) (Betacoronavirus England 1) (Humancoronavirus EMC)); experiment: biochemical; type: functional
Sequence (K9N7C7 3248-3553 limits assumed): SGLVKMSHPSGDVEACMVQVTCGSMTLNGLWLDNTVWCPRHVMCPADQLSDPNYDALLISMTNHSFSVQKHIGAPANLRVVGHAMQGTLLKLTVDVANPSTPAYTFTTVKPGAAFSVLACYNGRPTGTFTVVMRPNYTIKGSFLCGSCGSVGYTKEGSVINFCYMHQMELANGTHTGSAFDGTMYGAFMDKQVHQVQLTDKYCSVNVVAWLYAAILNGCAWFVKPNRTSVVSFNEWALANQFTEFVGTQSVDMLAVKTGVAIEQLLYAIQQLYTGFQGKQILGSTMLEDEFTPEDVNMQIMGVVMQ
pIC50: −log10 of the molar value.
parameter: pIC50

AUROTHIOGLUCOSE; 5.00
ACRIFLAVINE HYDROCHLORIDE; 5.00

###

target: Replicase polyprotein 1ab (Middle East respiratory syndrome-related coronavirus (isolate UnitedKingdom/H123990006/2012) (Betacoronavirus England 1) (Humancoronavirus EMC)) (UniProt K9N7C7); settings: at 10 µM
Where a name gives a salt, the structure may show the parent alone.
# key: entry, value: inhibition
parameter: inhibition (%)

CN(C)C(=S)SC(=S)N(C)C; 0
CC(C)c1cc(CNc2nc(Nc3cc(C4CC4)[nH]n3)cc(N3CCN(C)CC3)n2)on1; 9
COc1cccc(C(=O)CCN[C@@H](C)[C@H](O)c2ccccc2)c1; 19
CCOC(=O)Cc1ccc(-c2ccccc2)cc1; 18
Cc1ccccc1N(C)C(=O)c1ccc([S+]([O-])c2nccs2)c([N+](=O)[O-])c1 (stereo not given); 7
COc1ccc2[nH]c([S+]([O-])Cc3ncc(C)c(OC)c3C)nc2n1 (stereo not given); 0
CNC(=O)ON(C(C)=O)C(=O)NC [CARACEMIDE]; 8
Oc1cc(O)cc(/C=C/c2ccc(O)c(O)c2)c1; 24
Oc1cc2c(cc1O)[C@H]1c3ccccc3CN[C@@H]1CC2 [DIHYDREXIDINE HYDROCHLORIDE]; 19
O=[N+]([O-])C(Br)(CO)CO; 14

###

target: Replicase polyprotein 1ab (Middle East respiratory syndrome-related coronavirus (isolate UnitedKingdom/H123990006/2012) (Betacoronavirus England 1) (Humancoronavirus EMC)) (UniProt K9N7C7); conditions: at 10 µM
parameter: inhibition (%)

Cc1c(OCC(F)(F)F)ccnc1C[S+]([O-])c1nc2ccccc2[nH]1 (stereo not given); 47
COc1cc(C(=S)N2CCOCC2)ccc1O [VANITIOLIDE]; 0
O=c1cc(-c2ccc(O)cc2)oc2cc(O)cc(O)c12; 17
CC(Cc1ccc(O)c(O)c1)C(C)Cc1ccc(O)c(O)c1 (stereo not given) [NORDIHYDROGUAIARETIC ACID]; 0
CC(CN1CC(=O)NC(=O)C1)N1CC(=O)NC(=O)C1 (stereo not given); 7

###

target: Replicase polyprotein 1ab (Middle East respiratory syndrome-related coronavirus (isolate UnitedKingdom/H123990006/2012) (Betacoronavirus England 1) (Humancoronavirus EMC)); details: at 10 µM
Counter-ions that a name gives are not always drawn.
# key: entry, value: inhibition
parameter: inhibition (%)

O=C1C2CC=CCC2C(=O)N1SC(Cl)(Cl)Cl (stereo not given); 5
CN(C)CCNc1nc2cc(O)ccc2c2c1C(=O)c1ccccc1-2; 0
O=C1c2c(O)cc(O)cc2O[C@H](c2cc(O)c(O)c(O)c2)[C@H]1O; 18
C=CC(=O)c1ccc2ccccc2c1; 26
CN(C)C(=S)SSC(=S)N(C)C; 48
COCCCOc1ccnc(C[S+]([O-])c2nc3ccccc3[nH]2)c1C (stereo not given) [RABEPRAZOLE SODIUM]; 46
O=C1C=CC(=O)C2=C1C1c3ccccc3C2c2ccccc21; 45
Oc1cc(CNC(=S)/C=C/c2cc(O)c(O)c(Br)c2)cc(O)c1O; 20
O=C(/C=C/c1ccc(O)c(O)c1)O[C@H](Cc1ccc(O)c(O)c1)C(=O)O; 19
CN1CC[C@@]2(C)c3cc(O)ccc3N(C)[C@@H]12; 41
O=C(c1cc(O)c(O)c(O)c1)c1ccc(O)c(O)c1O; 0
O=c1cc(-c2ccccc2)oc2cc(O)c(O)c(O)c12; 47
Oc1ccc2ccccc2c1SSc1c(O)ccc2ccccc12; 6
C[n+]1cc2c3c(ccc2c2ccc4cc5c(cc4c21)OCO5)OCO3 [SANGUINARIUM CHLORIDE]; 32
CC(C)Nc1cccnc1N1CCN(C(=O)c2cc3cc(NS(C)(=O)=O)ccc3[nH]2)CC1 [DELAVIRDINE MESYLATE]; 34
COc1cccc2c1C(=O)c1c(O)c3c(c(O)c1C2=O)C[C@@](O)(/C(CO)=N/NC(=O)CCCCCN1C(=O)C=CC1=O)C[C@@H]3O[C@H]1C[C@H](N)[C@H](O)[C@H](C)O1; 1
O=C(O)c1cc(O)c2c(c1)[C@H]([C@H]1c3cc(C(=O)O)cc(O)c3C(=O)c3c(O[C@@H]4O[C@H](CO)[C@@H](O)[C@H](O)[C@H]4O)cccc31)c1cccc(O[C@@H]3O[C@H](CO)[C@@H](O)[C@H](O)[C@H]3O)c1C2=O [Sennoside A]; 42
NC(CO)C(=O)NNCc1ccc(O)c(O)c1O (stereo not given) [BENSERAZIDE HYDROCHLORIDE]; 9
CC(C)(C)c1ccc(S(=O)(=O)/C=C/C#N)cc1; 0
O=C(O)CCCCCCCCCCCCCCc1ccc(I)cc1; 0

###

# key: entry, value: inhibition
target: Chymotrypsin (Homo sapiens) (UniProt Q99895+P17538+P40313+Q6GPI1); assay: Chymotrypsin inhibition percentage at 10 µM by FRET kind of response from peptide substrate; type: functional
Counter-ions that a name gives are not always drawn.
parameter: inhibition (%)

CN1CCN(C(=O)c2ccc(-c3ccc4c(C=O)c(O)ccc4c3)s2)CC1; 9.67
Nc1ccc(O)c2ncccc12; 4.98
O=c1c(O)cccc2cc(O)c(O)c(O)c12; 9.33
Cc1ccc(S(=O)(=O)N[C@@H](Cc2ccccc2)C(=O)CCl)cc1; 39.6
NC(CO)C(=O)NNCc1ccc(O)c(O)c1O (centres undefined) [BENSERAZIDE HYDROCHLORIDE]; 0.39
CCCCCCNC(=O)n1cc(F)c(=O)[nH]c1=O; 14
CN1CCN(C2=C(Cl)C(=O)N(c3ccc(Cl)c(Cl)c3)C2=O)CC1; 9.67
O=C1C=Cc2cc(Br)ccc2C1=O; 8.47
Cc1cc(C)cc(N2C(=O)CC(Sc3nc[nH]n3)C2=O)c1 (centres undefined); 2.86

###

# key: entry, value: inhibition
target: Replicase polyprotein 1ab (Middle East respiratory syndrome-related coronavirus (isolate UnitedKingdom/H123990006/2012) (Betacoronavirus England 1) (Humancoronavirus EMC)); details: at 10 µM
parameter: inhibition (%)

Nc1nnc(Sc2ncc([N+](=O)[O-])s2)s1; 45
CC[C@H](CO)Nc1nc(NCc2ccc(-c3ccccn3)cc2)c2ncn(C(C)C)c2n1; 4
C[C@@](Cc1ccc(O)c(O)c1)(NN)C(=O)O [CARBIDOPA ANHYDROUS]; 0
Nc1cc2c3ccccc3ccc2c2ccccc12; 3
O=c1c2ccccc2[se]n1-c1ccccc1; 14
CCC(=O)OCN1C(=O)C=CC1=O; 0
Cc1ccc(-n2sc(=O)n(Cc3ccc(F)cc3)c2=O)cc1; 35
c1ccc2sc(SNC3CCCCC3)nc2c1; 0
O=c1c(O)c(-c2cc(O)c(O)c(O)c2)oc2cc(O)cc(O)c12; 5
Sc1nc2ccccc2s1; 0
O=C1C(Cl)=C(N2CCOCC2)C(=O)N1c1ccc(Cl)c(Cl)c1; 0

###

biological target: Replicase polyprotein 1ab (Middle East respiratory syndrome-related coronavirus (isolate UnitedKingdom/H123990006/2012) (Betacoronavirus England 1) (Humancoronavirus EMC)); assay: biochemical; assay type: functional
parameter: IC50

MERBROMIN; > 10 µM
PHENYLMERCURIC ACETATE; > 10 µM
THIMEROSAL; > 10 µM
